- Test system: Staphylococcus aureus
- experimental details: Antibacterial susceptibility testing (MIC/MBC), S. aureus
- Assay type: cell-based
- condition info: Staphylococcus aureus, ATCC reference strain 25293; read-out: MIC S. aureus 25293
- Method: Minimal inhibitory concentrations (MICs) were determined following a standard double-dilution method. […] For S. pneumoniae MICs were determined by adapting the standard double-dilution method to anaerobic conditions and of this microorganism (use of Todd Hewitt Yeast extract with 200 U/mL of catalase and continuous monitoring of growth).
We begin with a simple list: items and their reported MIC.

# example entries with known answers
> print(dat)
                                   molecule  recorded.endpoint  test.result
1               NCCc1ccc2c(c1)[nH]c1ccccc12                MIC    125 µg/mL
2                     Nc1nc(-c2ccccc2Cl)cs1                MIC    250 µg/mL
3                   Nc1nc(-c2ccc(Br)cc2)cs1                MIC    125 µg/mL
4  CC(=O)Nc1cccc(-c2ccccc2Cl)c1 [S1.7, N-[3-(2-chlorophenyl)phenyl]acetamide]                MIC    125 µg/mL
5  CC[C@H](c1ccc(O)cc1)[C@@H](CC)c1ccc(F)cc1                MIC      8 µg/mL
6                  Nc1nccc(Nc2ccc(Br)cc2)n1                MIC    250 µg/mL

Ask: Recorded MIC for `CC(C)(C)c1ccc(O)c(CNc2ccccc2)c1` , please?
Reply: 125 µg/mL

Ask: Now give it for CC(C)NCC(O)COc1cccc2[nH]c3ccccc3c12 (stereo not drawn) too.
Reply: 125 µg/mL

Ask: Now give it for `Oc1cccc2[nH]c3ccccc3c12` too.
Reply: 250 µg/mL

* * *

We begin with a simple list: items and their reported MBC.
- Tested on: Escherichia coli
- experimental details: Antibacterial susceptibility testing (MIC/MBC), E. coli
- Type: cell-based
- condition info: Escherichia coli, strain CFT 073; read-out: MBC E. coli CFT 073
Enter your answer as a number in µg/mL; do not include the unit.

# example entries with known answers
> print(dat)
                                   molecule  test.result
1            Oc1cccc2[nH]c3ccccc3c12 [F2.8]          500
2  CC(C)NCC(O)COc1cccc2[nH]c3ccccc3c12 (centres unmarked) [F2.4]          500

Now take the following molecule into account.
Ask: Recorded MBC for Nc1nccc(Nc2ccc(Br)cc2)n1 [F1.8] , please?
Reply: 500

* * *

- target: S. pneumoniae WalK (Streptococcus pneumoniae, UniProt Q8DPL8)
- Construct: WalK (amino acids from 208 to 449); N-terminal His6-3C site of vector pOPINF (own knowledge of the vector); made in house; host or cells: E. coli RIL
- Sequence (Q8DPL8 208-449): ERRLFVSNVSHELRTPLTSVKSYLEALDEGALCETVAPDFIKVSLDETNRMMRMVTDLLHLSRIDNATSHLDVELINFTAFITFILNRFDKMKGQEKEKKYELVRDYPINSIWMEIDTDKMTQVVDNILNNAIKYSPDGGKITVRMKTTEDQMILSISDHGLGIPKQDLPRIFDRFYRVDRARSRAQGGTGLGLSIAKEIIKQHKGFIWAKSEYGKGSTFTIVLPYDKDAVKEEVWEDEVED
- experimental details: In vitro autophosphorylation kinase assay with γ-32P-ATP, WalK
- Type: biochemical
- condition info: autophosphorylation, one time point (30 sec), 10% DMSO; read-out: IC50 WalK
pIC50: −log10 of the molar value.
We begin with a simple list: items and their reported pIC50.

# example entries with known answers
> print(dat)
                   compound                                    target  test.result
1      Cn1c2ccccc2c2ccccc21  S. pneumoniae WalK (Streptococcus pneumoniae, UniProt Q8DPL8)       < 2.70
2  Nc1nccc(Nc2ccc(Br)cc2)n1  S. pneumoniae WalK (Streptococcus pneumoniae, UniProt Q8DPL8)       < 2.70
3     Nc1nc(-c2ccccc2Cl)cs1  S. pneumoniae WalK (Streptococcus pneumoniae, UniProt Q8DPL8)       > 2.70

Ask: Recorded pIC50 for `Oc1cccc2[nH]c3ccccc3c12` , please?
Reply: < 2.70

Ask: Now give it for `Nc1nc(-c2ccc(Br)cc2)cs1` too.
Reply: < 2.70

Ask: Now give it for `Nc1ccc2c(c1)[nH]c1ccccc12` too.
Reply: < 2.70

Ask: Now give it for `c1ccc2c(c1)[nH]c1ccccc12` too.
Reply: < 2.70

Ask: Now give it for `c1ccc2[nH]ccc2c1` too.
Reply: < 2.70

Ask: Now give it for `Nc1nc(-c2ccc(O)cc2)cs1` too.
Reply: < 2.70

Ask: Now give it for CC(=O)Nc1cccc(C(C)NCc2cccc(Br)c2)c1 (stereo not drawn) too.
Reply: < 3.00

Ask: Now give it for CC(C)NCC(O)COc1cccc2[nH]c3ccccc3c12 (stereo not drawn) too.
Reply: < 2.70

Ask: Now give it for Oc1ccc2c(c1)[nH]c1ccccc12 [F2, 2-hydroxy-carbazole] too.
Reply: < 2.70
